target_of_assay: T1, full length recombinant human 2N4R tau (amino acids 1-441) (human, UniProt P10636 1-758)
T1 construct: Bought (rPeptide); recombinant, non-phosphorylated; also called recombinant tau
method_notes: SPR Biacore MCK, purified IgG on Protein A, tau analyte
Each record here notes measured koff.
Your answer is read as s⁻¹, so omit the unit and give the number.

Example entries begin here.
[ask] If you can, please state the reported koff value of Clone 24 (VH3Vκ4), humanised variant of clone #28, human IgG1 (antibody, V domains shown, also called VH3VK4; VH3Vk4) VH: QVQLQESGPGLVKPSETLSLTCTVSGFSLNNYDMSWVRQAPGKGLEWIGTVSTTYRRYYASWAKGRFTISKTSSTTVDLQMTSLTAEDTATYFCAASGIWGRGTLVTVSS VL: DIQMTQSPSTLSASVGDRVTITCQSSQRVYSNYLAWYQQKPGQPPKRLIFLASTLESGVPSRFSGSGSGTEFTLTISSLQPDDFATYYCAGTYTGSIWAFGGGTKVEIK .
[reply] 0.0013

[ask] If you can, please state the reported koff value of Clone #28 VH0VK0 chimeric human IgG1 (rabbit VH and VK of Clone 1) (antibody, V domains shown, also called VH0Vκ0; #28 VH0κ0) VH: QSLEESGGGLVKPGGTLTLTCTVSGFSLNNYDMSWVRQAPGKGLEWIGTVSTTYRRYYASWAKGRFTISKTSSTTVDLKMTSLTTEDTATYFCAASGIWGPGTLVTVSL VL: AQVLTQTTSPVSAAVGGTVTINCQSSQRVYSNYLAWYQQKPGQPPKRLIFLASTLESGVPSRFSGSGSGTQFTLTISDLECDDAATYYCAGTYTGSIWAFGGGTEVVVK .
[reply] 0.00249

Continuing:
[ask] If you can, please state the reported koff value of Clone 28 (VH4Vκ4), humanised variant of clone #28, human IgG1 (antibody, V domains shown, also called VH4VK4; VH4Vk4) VH: QVQLQESGPGLVKPSETLSLTCTVSGFSLNNYDMSWVRQAPGKGLEWIGTVSTTYRRYYASWAKGRFTISKDTSSTTVDLQMTSLTAEDTATYFCAASGIWGRGTLVTVSS VL: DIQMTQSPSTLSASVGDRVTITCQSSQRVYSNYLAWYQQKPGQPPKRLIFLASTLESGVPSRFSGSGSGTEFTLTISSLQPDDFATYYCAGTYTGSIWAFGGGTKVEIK .
[reply] 0.00186
